Study target: T1, MBP-ENL (489-559) (Homo sapiens (Human)) (UniProt Q03111)
T1 sequence: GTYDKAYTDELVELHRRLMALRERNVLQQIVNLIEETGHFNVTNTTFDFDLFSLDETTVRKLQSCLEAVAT
Protocol details: FP saturation; 10 nM Flu-DOT1L titrated with MBP-ENL
Where no end group is shown, it is not given here.

# Binder, Kd / nM
data = [
    ("LPISIPLSTV-NH2 (not fully specified (N-terminus)) [N-Flu-DOT1L, fluorescein-labeled DOT1L 10-mer peptide (N-terminal label)]", 495),
]
